Each record here notes measured solubility at 24 h.
experiment: Solubility and solubility-range determination in 50 mM phosphate buffer at different pH; assay type: physicochemical; conditions: aqueous buffer, kinetic from dmso stock, pH 6, 50 mM phosphate buffer, 1% DMSO, 23° C., read-out: Solubility or solubility range

| smiles_notation | solubility at 24 h |
| --- | --- |
| N=C(c1cccc(NC(=O)Nc2ccc(S(=O)(=O)NCc3ccc(S(N)(=O)=O)cc3)cc2)c1)N1CCNCC1 | > 200 µg/mL |
| N=C(c1cccc(NC(=O)Nc2ccc(S(=O)(=O)NCc3ccc(S(N)(=O)=O)cc3)cc2)c1)N1CCS(=O)(=O)CC1 | > 200 µg/mL |
| COC(=O)N1CCN(C(=N)c2cccc(NC(=O)Nc3ccc(S(=O)(=O)NCc4ccc(S(N)(=O)=O)cc4)cc3)c2)CC1 | 1290 µg/mL |
| CCCN1CCN(C(=N)c2cccc(NC(=O)Nc3ccc(S(=O)(=O)NCc4ccc(S(N)(=O)=O)cc4)cc3)c2)CC1 | > 200 µg/mL |
| CCCCN1CCN(C(=N)c2cccc(NC(=O)Nc3ccc(S(=O)(=O)NCc4ccc(S(N)(=O)=O)cc4)cc3)c2)CC1 | 960 µg/mL |
| CCC(=O)N1CCN(C(=N)c2cccc(NC(=O)Nc3ccc(S(=O)(=O)NCc4ccc(S(N)(=O)=O)cc4)cc3)c2)CC1 | > 200 µg/mL |

----------
Items are presented alongside their recorded solubility at 24 h.
assay: Solubility and solubility-range determination in 50 mM phosphate buffer at different pH; format: physicochemical; settings: aqueous buffer, kinetic from dmso stock, pH 4, 50 mM phosphate buffer, 1% DMSO, 23° C., read-out: Solubility or solubility range

| smiles_notation | solubility at 24 h |
| --- | --- |
| N=C(c1cccc(NC(=O)Nc2ccc(S(=O)(=O)NCc3ccc(S(N)(=O)=O)cc3)cc2)c1)N1CCS(=O)(=O)CC1 | > 0.2 mg/mL |
| N=C(c1cccc(NC(=O)Nc2ccc(S(=O)(=O)NCc3ccc(S(N)(=O)=O)cc3)cc2)c1)N1CCNCC1 | > 0.2 mg/mL |
| CCC(=O)N1CCN(C(=N)c2cccc(NC(=O)Nc3ccc(S(=O)(=O)NCc4ccc(S(N)(=O)=O)cc4)cc3)c2)CC1 | > 0.2 mg/mL |
| CCCCN1CCN(C(=N)c2cccc(NC(=O)Nc3ccc(S(=O)(=O)NCc4ccc(S(N)(=O)=O)cc4)cc3)c2)CC1 | 0.96 mg/mL |
| COC(=O)N1CCN(C(=N)c2cccc(NC(=O)Nc3ccc(S(=O)(=O)NCc4ccc(S(N)(=O)=O)cc4)cc3)c2)CC1 | 1.48 mg/mL |
| CCCN1CCN(C(=N)c2cccc(NC(=O)Nc3ccc(S(=O)(=O)NCc4ccc(S(N)(=O)=O)cc4)cc3)c2)CC1 | > 0.2 mg/mL |

----------
assay: Solubility and solubility-range determination in 50 mM phosphate buffer at different pH; type: physicochemical; settings: aqueous buffer, kinetic from dmso stock, pH 7.4, 50 mM phosphate buffer, 1% DMSO, 23° C., read-out: Solubility or solubility range
property_name: solubility at 24 h

| compound | measured |
| --- | --- |
| N=C(c1cccc(NC(=O)Nc2ccc(S(=O)(=O)NCc3ccc(S(N)(=O)=O)cc3)cc2)c1)N1CCNCC1 [Compound 52] | > 200 µg/mL |
| CCCN1CCN(C(=N)c2cccc(NC(=O)Nc3ccc(S(=O)(=O)NCc4ccc(S(N)(=O)=O)cc4)cc3)c2)CC1 [Compound 38] | > 200 µg/mL |
| N=C(c1cccc(NC(=O)Nc2ccc(S(=O)(=O)NCc3ccc(S(N)(=O)=O)cc3)cc2)c1)N1CCS(=O)(=O)CC1 [Compound 44] | > 200 µg/mL |
| CCCCN1CCN(C(=N)c2cccc(NC(=O)Nc3ccc(S(=O)(=O)NCc4ccc(S(N)(=O)=O)cc4)cc3)c2)CC1 [Compound 34] | 750 µg/mL |
| COC(=O)N1CCN(C(=N)c2cccc(NC(=O)Nc3ccc(S(=O)(=O)NCc4ccc(S(N)(=O)=O)cc4)cc3)c2)CC1 [Compound 60] | 763 µg/mL |
| CCC(=O)N1CCN(C(=N)c2cccc(NC(=O)Nc3ccc(S(=O)(=O)NCc4ccc(S(N)(=O)=O)cc4)cc3)c2)CC1 [Compound 58] | > 200 µg/mL |
